Assay system: carbonyl reductase 1 (CBR1) (Homo sapiens)
Sequence (P16152 1-277): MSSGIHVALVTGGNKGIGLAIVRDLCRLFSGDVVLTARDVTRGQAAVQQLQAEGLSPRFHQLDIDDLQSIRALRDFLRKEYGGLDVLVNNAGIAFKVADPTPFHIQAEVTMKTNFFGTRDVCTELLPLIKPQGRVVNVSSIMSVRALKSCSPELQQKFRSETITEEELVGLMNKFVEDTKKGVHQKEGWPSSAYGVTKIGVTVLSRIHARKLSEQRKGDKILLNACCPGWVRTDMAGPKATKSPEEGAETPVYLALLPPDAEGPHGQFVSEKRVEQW
Assay overview: CBR1 inhibition: menadione reduction, NADPH absorbance at 340 nm
Assay type: biochemical
Set-up: 6-His (N); made in house; host or cells: E. coli
Assay setup: FIG. 5; read-out: IC50, CBR1 catalyzed reduction of menadione by NADPH
pIC50: −log10 of the molar value.
Endpoint label: pIC50

// sample CC(C)(C)n1nc(-c2cccc(O)c2)c2c(N)ncnc21 [AB129] , its pIC50 was ~5.30

====

For each of the molecules below, state its IC50.
Assay system: carbonyl reductase 1 (CBR1) (Homo sapiens)
Assay overview: CBR1 inhibition: menadione reduction, NADPH absorbance at 340 nm
Type: biochemical
Design: 6-His (N); made in house; host or cells: E. coli
Assay setup: read-out: anti-CBR IC50
Numbers only, in nM.

> print(dat)
                                chem.smiles  unit.name  recorded.value
1  CC(C)n1cc(-c2cccc(O)c2)c2c(NCc3ccccc3)ncnc21         nM            4400
2  CNc1ncnc2c1c(-c1cc(O)cc(C(F)(F)F)c1)cn2C(C)C         nM             416
3     CNc1ncnc2c1c(-c1cccc(O)c1)cn2CCC(=O)O         nM             220

Quick one: give me IC50 for each item below, same order please.
1. CC(C)n1cc(-c2cc(O)cc(C(F)(F)F)c2)c2c(Cl)ncnc21
2. CNc1ncnc2c1c(-c1cc(O)cc(C(C)(C)C)c1)cn2C(C)C

Result:
67
7650

====

For each of the compounds below, state its IC50.
Assay system: UniProt:P16152
Assay overview: CBR1 inhibition: menadione reduction, NADPH absorbance at 340 nm
Type: biochemical
Set-up: 6-His (N); made in house; host or cells: E. coli
Assay setup: Table 1; read-out: IC50 anti-hCBR1
Numbers only, in µM.

Below are worked cases with known answers.
> print(dat)
                                   compound    assay.system  recorded.value
1  CC(C)n1cc(-c2cc(O)cc(Br)c2)c2c(Cl)ncnc21 [SD5]  UniProt:P16152           0.028
2  CCOCCn1nc(-c2cccc(O)c2)c2c(N)ncnc21 [MT15]  UniProt:P16152            0.93
3  CC(C)n1nc(-c2cccc(O)c2)c2c(N)ncnc21 [RB02]  UniProt:P16152               1
4  CC(C)n1cc(-c2cccc(O)c2)c2c(N)ncnc21 [RB05]  UniProt:P16152            0.76

Give IC50 for each listed item.
1. CC(C)(C)n1nc(-c2cccc(O)c2)c2c(N)ncnc21 [AB129]
2. CNc1ncnc2c1c(-c1cccc(O)c1)cn2C(C)C [RB06]

Result:
1. 0.79
2. 0.59

====

Assay system: c-Fyn-wt (Homo sapiens, UniProt P06241)
Sequence (P06241 whole entry): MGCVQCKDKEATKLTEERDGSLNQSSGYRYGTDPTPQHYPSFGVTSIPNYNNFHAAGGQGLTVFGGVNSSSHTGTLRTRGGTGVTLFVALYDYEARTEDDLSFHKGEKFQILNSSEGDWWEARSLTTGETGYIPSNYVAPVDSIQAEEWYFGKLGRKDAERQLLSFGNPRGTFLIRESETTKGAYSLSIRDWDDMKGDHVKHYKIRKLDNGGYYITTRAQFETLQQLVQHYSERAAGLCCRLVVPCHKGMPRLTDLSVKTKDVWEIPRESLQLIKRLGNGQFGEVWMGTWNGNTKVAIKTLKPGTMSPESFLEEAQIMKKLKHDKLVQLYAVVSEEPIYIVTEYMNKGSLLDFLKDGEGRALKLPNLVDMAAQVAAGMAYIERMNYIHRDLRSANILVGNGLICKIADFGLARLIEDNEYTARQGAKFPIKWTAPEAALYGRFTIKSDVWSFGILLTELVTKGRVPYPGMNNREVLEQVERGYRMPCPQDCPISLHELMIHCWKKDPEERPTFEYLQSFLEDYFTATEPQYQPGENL
Assay overview: Inhibition of Src family kinase Fyn
Type: biochemical
Assay setup: read-out: anti-Fyn IC50
Endpoint label: pIC50
One number for each entry, as −log10 of the molar value.

> print(dat)
                                chem.smiles  recorded.value
1  CC(C)n1cc(-c2cccc(O)c2)c2c(NCc3ccccc3)ncnc21            4.70

# context switch: different compound, same pIC50
Note to self: pIC50 recorded for CC(C)(C)n1nc(-c2cccc(O)c2)c2c(N)ncnc21 was 8.00

====

Assay system: c-Fyn-wt (Homo sapiens)
Assay overview: Inhibition of Src family kinase Fyn
Type: biochemical
Assay setup: Table 1; read-out: IC50 anti-c-Fyn-wt
Could you please report measured pIC50 for the items listed next?
Numbers only, as −log10 of the molar value.

> print(dat)
                              chem.smiles  recorded.value
1     CC(C)(C)n1nc(-c2ccccc2)c2c(N)ncnc21            6.96
2  CC(C)(C)n1nc(-c2cccc(N)c2)c2c(N)ncnc21            7.30
3    CC(C)(C)n1nc(Cc2ccccc2O)c2c(N)ncnc21            6.92
4  CC(C)(C)n1nc(Cc2cccc(O)c2)c2c(N)ncnc21            5.92
5     CC(C)n1nc(-c2cccc(O)c2)c2c(N)ncnc21            7.96
6  CC(C)(C)n1nc(-c2cccc(O)c2)c2c(N)ncnc21            8.10

Return reported pIC50 values for all items listed beneath this line.
1. CCOCCn1nc(-c2cccc(O)c2)c2c(N)ncnc21
2. CC(C)(C)n1nc(-c2ccc(F)c(O)c2)c2c(N)ncnc21
3. CNc1ncnc2c1c(-c1cccc(O)c1)cn2C(C)C
4. CCOCCn1nc(-c2ccccc2)c2c(N)ncnc21
5. CC(C)(C)n1nc(-c2ccc(N)cc2)c2c(N)ncnc21
6. CC(C)n1cc(-c2cccc(O)c2)c2c(N)ncnc21

Result:
6.70
8.52
4.15
5.30
7.30
7.92

====

Assignment: determine reported IC50 for the given molecules.
Assay system: UniProtKB P16152
Assay overview: CBR1 inhibition: menadione reduction, NADPH absorbance at 340 nm
Format: biochemical
Design: 6-His (N); made in house; host or cells: E. coli
Assay setup: read-out: anti-CBR IC50
Answers are plain numbers, in nM.

> print(dat)
                                chem.smiles  recorded.value
1     CNc1ncnc2c1c(-c1cc(C)cc(O)c1)cn2C(C)C            3040
2  CC(C)n1cc(-c2cc(O)cc(C(C)(C)C)c2)c2c(Cl)ncnc21             376

Provide IC50 values for the following items, in order.
1. Cc1cc(O)cc(-c2cn(C(C)C)c3ncnc(Cl)c23)c1
2. CNc1ncnc2c1c(-c1cc(O)cc(Br)c1)cn2C(C)C
3. CNc1ncnc2c1c(-c1cccc(O)c1)cn2CCC(=O)OC(C)(C)C

Result:
1. 193
2. 220
3. 1150

Form field IC50, entry CC(C)n1cc(-c2cc(O)cc(Br)c2)c2c(Cl)ncnc21 : 27
